Biological target: T1, E. coli-expressed recombinant cynomolgus IL-13 (cynomolgus, UniProt Q5I6E4 21-132 (Macaca thibetana entry))
T1 construct: also called cyno IL13 (CA); cIL-13
T1 chain: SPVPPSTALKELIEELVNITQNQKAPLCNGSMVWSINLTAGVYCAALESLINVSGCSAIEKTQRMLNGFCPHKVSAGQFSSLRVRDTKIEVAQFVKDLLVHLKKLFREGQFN
Test: BIAcore analysis 1, antibody captured, IL-13 in solution
MEASUREMENT_NAME: koff

koff reported for this binder L2+A1 (antibody, human IgG1, kappa, V domains shown, Humanised 6A1, VH construct A1 and VL construct L2; also called A1L2) VH: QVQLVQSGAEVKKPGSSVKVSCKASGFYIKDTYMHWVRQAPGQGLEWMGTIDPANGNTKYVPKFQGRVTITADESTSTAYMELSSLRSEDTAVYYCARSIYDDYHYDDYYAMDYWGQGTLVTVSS VL: DIVMTQSPLSLPVTPGEPASISCRSSQNIVHINGNTYLEWYLQKPGQSPRLLIYKISDRFSGVPDRFSGSGSGTDFTLKISRVEADDVGVYYCFQGSHVPWTFGQGTKLEIKR : 5.58e-05 s⁻¹
